Below, each entry is listed alongside its reported pKi.
PROTOCOL_TEXT: Inhibition of beta-lactamase CphA (unknown origin) expressed in Escherichia coli BL21(DE3) using imipenem as substrate by measuring substrate hydrolysis by spectrophotometric analysis
Interpret pKi as the negative base-10 log of the concentration measured in mol/L.

In the examples that follow, each entry is paired with its recorded pKi.
COMPOUND | pKi
Cc1ccccc1-c1n[nH]c(=S)n1/N=C/c1ccc(C(=O)O)cc1 | 4.51
S=c1[nH]nc(CCc2ccccc2)n1/N=C/c1ccc(OCc2ccccc2)cc1 | 6.00

Sample Oc1ccc(/C=N/n2c(-c3ccccc3)n[nH]c2=S)c(O)c1 — what was its pKi?
4.59

Oc1ccc(/C=N/n2c(CCc3ccccc3)n[nH]c2=S)c(O)c1 , same question.
5.22

Reference source: ChEMBL document CHEMBL4706580
